Biological target: Protein cereblon/Tyrosine-protein kinase BTK (Homo sapiens, UniProt Q06187+Q96SW2)
Assay: PROTAC activity at BTK/CRBN in human MINO cells assessed as BTK protein degradation half life at 20 nM by Western blotting analysis
Assay type: cell-based
Sequence (Q06187 2-659 limits assumed): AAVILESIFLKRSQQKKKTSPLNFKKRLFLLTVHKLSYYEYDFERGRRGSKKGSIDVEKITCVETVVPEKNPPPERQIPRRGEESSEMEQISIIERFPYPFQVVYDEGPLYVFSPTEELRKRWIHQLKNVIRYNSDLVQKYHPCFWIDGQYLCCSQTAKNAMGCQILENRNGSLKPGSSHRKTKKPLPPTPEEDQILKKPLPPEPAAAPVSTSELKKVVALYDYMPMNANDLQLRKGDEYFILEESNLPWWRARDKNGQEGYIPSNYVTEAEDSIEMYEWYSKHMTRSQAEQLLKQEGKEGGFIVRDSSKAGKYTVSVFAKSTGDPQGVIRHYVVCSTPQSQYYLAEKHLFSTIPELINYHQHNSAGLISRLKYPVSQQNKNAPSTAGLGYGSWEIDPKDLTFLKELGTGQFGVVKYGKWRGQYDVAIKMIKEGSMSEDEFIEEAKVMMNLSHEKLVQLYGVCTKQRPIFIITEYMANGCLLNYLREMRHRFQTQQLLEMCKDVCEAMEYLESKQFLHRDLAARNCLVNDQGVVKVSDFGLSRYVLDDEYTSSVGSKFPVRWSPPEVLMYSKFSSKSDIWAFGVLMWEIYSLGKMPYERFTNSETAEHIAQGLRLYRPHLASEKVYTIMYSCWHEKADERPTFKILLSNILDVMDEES
Sequence (Q96SW2 whole entry partner): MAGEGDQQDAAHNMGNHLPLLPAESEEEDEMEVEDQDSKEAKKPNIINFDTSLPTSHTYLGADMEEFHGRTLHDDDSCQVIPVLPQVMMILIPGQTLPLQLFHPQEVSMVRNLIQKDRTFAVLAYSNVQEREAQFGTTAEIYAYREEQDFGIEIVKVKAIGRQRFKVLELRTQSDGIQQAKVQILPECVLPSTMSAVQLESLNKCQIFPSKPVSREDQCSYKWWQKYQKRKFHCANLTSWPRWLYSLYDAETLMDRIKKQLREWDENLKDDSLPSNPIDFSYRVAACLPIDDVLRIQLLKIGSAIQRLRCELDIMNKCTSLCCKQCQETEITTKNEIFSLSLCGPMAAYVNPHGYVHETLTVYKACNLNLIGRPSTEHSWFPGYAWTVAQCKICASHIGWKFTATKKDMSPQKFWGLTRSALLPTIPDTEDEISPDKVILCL
endpoint-label: T1/2 (h)
Express the result in h but write the number alone.

Below are worked cases with known answers.
{"compound": "Cc1cc(-c2nc(Nc3ccn(C4CCN(CC5CCN(c6ccc7c(c6)C(=O)N(C6CCC(=O)NC6=O)C7=O)CC5)CC4)n3)ncc2F)ccc1CNC(=O)c1noc(C(C)(C)C)n1 (stereo not given)", "system": "Protein cereblon/Tyrosine-protein kinase BTK (Homo sapiens, UniProt Q06187+Q96SW2)", "endpoint-label": "T1/2", "unit-text": "h", "measured-value": 1.1}
{"compound": "Cc1cc(-c2nc(Nc3cnn(C4CCN(CC5CCN(c6ccc7c(c6)C(=O)N(C6CCC(=O)NC6=O)C7=O)CC5)CC4)c3)ncc2F)ccc1CNC(=O)c1cn(C(C)(C)C)nn1 (stereo not given)", "system": "Protein cereblon/Tyrosine-protein kinase BTK (Homo sapiens, UniProt Q06187+Q96SW2)", "endpoint-label": "T1/2", "unit-text": "h", "measured-value": 0.59}
{"compound": "Nc1ncnc2c1c(-c1ccc(Oc3ccccc3)cc1)nn2C1CCN(C(=O)CN2CCN(CC3CN(c4ccc5c(c4)C(=O)N(C4CCC(=O)NC4=O)C5=O)C3)CC2)CC1 (stereo not given)", "system": "Protein cereblon/Tyrosine-protein kinase BTK (Homo sapiens, UniProt Q06187+Q96SW2)", "endpoint-label": "T1/2", "unit-text": "h", "measured-value": 1.51}
{"compound": "NC(=O)c1ncc(N2CCCCC2)nc1Nc1ccc(C2CCN(C[C@@H]3CCN(c4ccc5c(c4)C(=O)N(C4CCC(=O)NC4=O)C5=O)C3)CC2)cc1 (stereo not given in full)", "system": "Protein cereblon/Tyrosine-protein kinase BTK (Homo sapiens, UniProt Q06187+Q96SW2)", "endpoint-label": "T1/2", "unit-text": "h", "measured-value": 1.25}

Next, consider the following compound.
Quick one: T1/2 for Cc1cc(-c2nc(Nc3cnn(C4CN(CC5CCN(c6ccc7c(c6)C(=O)N(C6CCC(=O)NC6=O)C7=O)CC5)C4)c3)ncc2F)ccc1CNC(=O)c1cn(C(C)(C)C)nn1 (stereo not given) ?
0.71

====

Catalogue of AUC(0-inf) values
Assay: AUC (0 to infinity) in Sprague-Dawley rat at 4 mg/kg, ip measured upto 48 hrs
Assay type: ADME, organism-based
Settings: in vivo

{"compound": "C=CC(=O)N1CCC[C@@H](n2nc(-c3ccc(Oc4ccccc4)cc3)c3c(N)ncnc32)C1", "measured-value": "11700 ng·h/mL"}

Next, consider the following compound.
Quick one: AUC(0-inf) for Cc1cc(-c2nc(Nc3cnn(C4CCN(CC5CCN(c6ccc7c(c6)C(=O)N(C6CCC(=O)NC6=O)C7=O)CC5)CC4)c3)ncc2F)ccc1CNC(=O)c1cn(C(C)(C)C)nn1 (configuration not stated) ?
3090 ng·h/mL

====

Test: Cmax in Sprague-Dawley rat at 4 mg/kg, ip measured upto 48 hrs
Format: ADME, organism-based
Conditions: in vivo
endpoint-label: Cmax
Your reply should be a number followed by the unit it is expressed in.

Quick one: Cmax for C=CC(=O)N1CCC[C@@H](n2nc(-c3ccc(Oc4ccccc4)cc3)c3c(N)ncnc32)C1 ?
3460 ng/mL

Quick one: Cmax for Cc1cc(-c2nc(Nc3cnn(C4CCN(CC5CCN(c6ccc7c(c6)C(=O)N(C6CCC(=O)NC6=O)C7=O)CC5)CC4)c3)ncc2F)ccc1CNC(=O)c1cn(C(C)(C)C)nn1 (configuration not stated) ?
184 ng/mL

====

Assay: Half life in Sprague-Dawley rat at 4 mg/kg, ip measured upto 48 hrs
Format: ADME, organism-based
Settings: in vivo
endpoint-label: half-life (h)
Express the result in h but write the number alone.

Quick one: half-life for Cc1cc(-c2nc(Nc3cnn(C4CCN(CC5CCN(c6ccc7c(c6)C(=O)N(C6CCC(=O)NC6=O)C7=O)CC5)CC4)c3)ncc2F)ccc1CNC(=O)c1cn(C(C)(C)C)nn1 (stereo unspecified) ?
13.6

====

Target: Protein cereblon/Tyrosine-protein kinase BTK (Homo sapiens, UniProt Q06187+Q96SW2)
Assay: PROTAC activity at BTK/CRBN in human MINO cells assessed as BTK protein degradation measured for 4 hrs by Western blotting analysis
Assay type: cell-based
Sequence (Q06187 whole entry): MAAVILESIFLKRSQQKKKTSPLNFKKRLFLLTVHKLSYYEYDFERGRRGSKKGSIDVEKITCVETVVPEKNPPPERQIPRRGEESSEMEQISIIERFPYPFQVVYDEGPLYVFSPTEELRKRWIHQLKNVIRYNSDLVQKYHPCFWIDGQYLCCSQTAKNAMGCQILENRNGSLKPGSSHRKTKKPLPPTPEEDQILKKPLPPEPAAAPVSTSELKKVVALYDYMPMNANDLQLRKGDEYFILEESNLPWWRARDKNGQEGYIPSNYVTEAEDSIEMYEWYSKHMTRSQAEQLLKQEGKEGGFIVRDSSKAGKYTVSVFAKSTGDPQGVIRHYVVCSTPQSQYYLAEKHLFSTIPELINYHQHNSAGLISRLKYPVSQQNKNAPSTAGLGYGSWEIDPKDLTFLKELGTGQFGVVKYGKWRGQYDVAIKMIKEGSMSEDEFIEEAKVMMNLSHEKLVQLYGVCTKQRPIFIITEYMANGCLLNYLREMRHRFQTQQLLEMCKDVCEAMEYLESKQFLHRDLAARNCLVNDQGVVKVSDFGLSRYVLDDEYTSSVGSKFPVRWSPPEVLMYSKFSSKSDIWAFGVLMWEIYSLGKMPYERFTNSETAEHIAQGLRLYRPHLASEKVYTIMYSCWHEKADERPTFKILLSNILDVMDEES
Sequence (Q96SW2 whole entry): as the sequence (Q96SW2 whole entry partner) above
Classify: Fulfilled when DC50 is strictly less than 2 nM; Not fulfilled when DC50 is not.

{"compound": "Nc1ncnc2c1c(-c1ccc(Oc3ccccc3)cc1)nn2C1CCN(C(=O)CN2CCN(CC3CN(c4ccc5c(c4)C(=O)N(C4CCC(=O)NC4=O)C5=O)C3)CC2)CC1 (stereo not given)", "qualitative-label": "Not fulfilled"}
{"compound": "Cc1cc(-c2nc(Nc3cnn(C4CCN(CC5CCN(c6ccc7c(c6)C(=O)N(C6CCC(=O)NC6=O)C7=O)CC5)CC4)c3)ncc2F)ccc1CNC(=O)c1cn(C(C)(C)C)nn1 (stereo not given)", "qualitative-label": "Fulfilled"}
{"compound": "NC(=O)c1ncc(N2CCCCC2)nc1Nc1ccc(C2CCN(C[C@@H]3CCN(c4ccc5c(c4)C(=O)N(C4CCC(=O)NC4=O)C5=O)C3)CC2)cc1 (stereo not given in full)", "qualitative-label": "Not fulfilled"}
{"compound": "Cc1cc(-c2nc(Nc3ccn(C4CCN(CC5CCN(c6ccc7c(c6)C(=O)N(C6CCC(=O)NC6=O)C7=O)CC5)CC4)n3)ncc2F)ccc1CNC(=O)c1noc(C(C)(C)C)n1 (stereo not given)", "qualitative-label": "Not fulfilled"}

# evaluate next
Input Cc1cc(-c2nc(Nc3cnn(C4CN(CC5CCN(c6ccc7c(c6)C(=O)N(C6CCC(=O)NC6=O)C7=O)CC5)C4)c3)ncc2F)ccc1CNC(=O)c1cn(C(C)(C)C)nn1 (stereo not given) ; condition: DC50 strictly below 2 nM. Does it hold?
Not fulfilled

====

Catalogue of pKi values
Target: Tyrosine-protein kinase BTK (Homo sapiens)
Sequence (Q06187 whole entry): as the sequence (Q06187 whole entry) above
For clarity, pKi is expressed as the negative log10 of concentration in mol/L.

{"compound": "Nc1ncnc2c1c(-c1ccc(Oc3ccccc3)cc1)nn2C1CCN(C(=O)CN2CCN(CC3CN(c4ccc5c(c4)C(=O)N(C4CCC(=O)NC4=O)C5=O)C3)CC2)CC1 (configuration not stated)", "pKi": 7.30}

Next, consider the following compound.
Param readout= pKi; system= Tyrosine-protein kinase BTK (Homo sapiens); entry= Cc1cc(-c2nc(Nc3cnn(C4CCN(CC5CCN(c6ccc7c(c6)C(=O)N(C6CCC(=O)NC6=O)C7=O)CC5)CC4)c3)ncc2F)ccc1CNC(=O)c1cn(C(C)(C)C)nn1 (configuration not stated) ; returns value.
6.82

====

Assay: AUC (0 to infinity) in Sprague-Dawley rat at 2 mg/kg, iv measured upto 48 hrs
Type: ADME, organism-based
Conditions: in vivo
endpoint-label: AUC(0-inf)

Quick one: AUC(0-inf) for Cc1cc(-c2nc(Nc3cnn(C4CCN(CC5CCN(c6ccc7c(c6)C(=O)N(C6CCC(=O)NC6=O)C7=O)CC5)CC4)c3)ncc2F)ccc1CNC(=O)c1cn(C(C)(C)C)nn1 (stereo unspecified) ?
2350 ng·h/mL

====

Biological target: Protein cereblon/Tyrosine-protein kinase BTK (Homo sapiens, UniProt Q06187+Q96SW2)
Assay: PROTAC activity at BTK/CRBN in human MINO cells assessed as BTK protein degradation at 100 nM measured after 24 hrs by Western blotting analysis relative to control
Assay type: cell-based
endpoint-label: Activity (%)
Express the result in % but write the number alone.

{"molecule": "Cc1cc(-c2nc(Nc3cnn(C4CN(CC5CCN(c6ccc7c(c6)C(=O)N(C6CCC(=O)NC6=O)C7=O)CC5)C4)c3)ncc2F)ccc1CNC(=O)c1cn(C(C)(C)C)nn1 (configuration not stated)", "unit-text": "%", "Activity": 99}
{"molecule": "O=C1CCC(N2C(=O)c3ccc(N4CCC(CN5CCN(c6ccc(Nc7ncc(F)c(N8CCC(CO)CC8)n7)cn6)CC5)CC4)cc3C2=O)C(=O)N1 (configuration not stated)", "unit-text": "%", "Activity": 20}
{"molecule": "Cn1cc(Nc2nc(Nc3ccc(N4CCN(CC5CN(c6ccc7c(c6)C(=O)N(C6CCC(=O)NC6=O)C7=O)C5)CC4)cc3)ncc2F)cn1 (configuration not stated)", "unit-text": "%", "Activity": 11}
{"molecule": "Cc1cc(-c2nc(Nc3cnn(C4CCN(CC5CCN(c6ccc(C7CCC(=O)NC7=O)cc6F)CC5)CC4)c3)ncc2F)ccc1CNC(=O)c1cn(C(C)(C)C)nn1 (configuration not stated)", "unit-text": "%", "Activity": 57}

Param readout= Activity; system= Protein cereblon/Tyrosine-protein kinase BTK (Homo sapiens, UniProt Q06187+Q96SW2); entry= Cc1cc(-c2nc(Nc3cnn(C4CCN(C(=O)CCC(=O)N[C@@H](C)C(=O)N[C@H]5CCC(=O)NC5=O)CC4)c3)ncc2F)ccc1CNC(=O)c1cn(C(C)(C)C)nn1 ; returns value.
32

Param readout= Activity; system= Protein cereblon/Tyrosine-protein kinase BTK (Homo sapiens, UniProt Q06187+Q96SW2); entry= Cc1cc(-c2nc(Nc3ccn(C4CN(CC5CCN(c6ccc7c(c6)C(=O)N(C6CCC(=O)NC6=O)C7=O)CC5)C4)n3)ncc2F)ccc1CNC(=O)c1cn(C2CC2)nn1 (configuration not stated) ; returns value.
97

Each recorded value in this set is attributed to ChEMBL document CHEMBL5528048.
